Each entry below carries its reported Dmax at 1 µM.
Target: CDK16 (Homo sapiens, UniProt Q00536)
Construct: Whole cell extracts were prepared using RIPA buffer; endogenous in cells; host or cells: MV-4-11
Sequence (Q00536 whole entry): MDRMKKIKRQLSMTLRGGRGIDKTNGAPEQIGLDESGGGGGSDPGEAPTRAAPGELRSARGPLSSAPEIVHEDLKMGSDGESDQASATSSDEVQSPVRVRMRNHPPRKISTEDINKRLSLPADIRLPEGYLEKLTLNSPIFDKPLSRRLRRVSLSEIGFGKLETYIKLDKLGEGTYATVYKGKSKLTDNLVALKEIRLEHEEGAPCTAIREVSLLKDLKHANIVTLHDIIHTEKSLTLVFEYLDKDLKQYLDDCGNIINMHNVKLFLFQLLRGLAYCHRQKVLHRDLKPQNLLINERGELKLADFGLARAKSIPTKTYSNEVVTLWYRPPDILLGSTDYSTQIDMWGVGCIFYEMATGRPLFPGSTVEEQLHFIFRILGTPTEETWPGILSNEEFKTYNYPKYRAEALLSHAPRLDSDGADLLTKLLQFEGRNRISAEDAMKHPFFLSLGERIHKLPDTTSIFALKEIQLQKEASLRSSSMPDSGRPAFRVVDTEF
Experiment: CDK16 degradation assay (Western blot, MV-4-11 cells)
Format: cell-based
Details: MV4-11, 1 μM, 6-8 h

Query: Kindly indicate its recorded Dmax at 1 µM. Item: CC(C)(C)c1cnc(CSc2cnc(NC(=O)C3CCN(CC(=O)NCCOCCOCCNCC(=O)NCc4cc5c(s4)C(=O)N(C4CCC(=O)NC4=O)C5)CC3)s2)o1 (stereo not drawn)
Result: < 25%

Query: Could you please provide reported Dmax at 1 µM for Cn1ncc(-c2nc(N[C@H]3CC[C@H](NCC(=O)NCCCCCNCC(=O)NCc4cc5c(s4)C(=O)N(C4CCC(=O)NC4=O)C5)CC3)ncc2F)c1CC1CC1 (stereo partly drawn) ? Thanks!
Result: 50 to 75%

Query: Consider the compound Cn1ncc(-c2nc(N[C@H]3CC[C@H](NCC(=O)NCCCCNCC(=O)NCc4scc5c4CN(C4CCC(=O)NC4=O)C5=O)CC3)ncc2Cl)c1CC1CC1 (stereo partly drawn) and give its recorded Dmax at 1 µM.
Result: ≥ 75%

###

Molecular target: CDK16 (Homo sapiens, UniProt Q00536)
Construct: Whole cell extracts were prepared using RIPA buffer; endogenous in cells; host or cells: MV-4-11
Experiment: CDK16 degradation assay (Western blot, MV-4-11 cells)
Format: cell-based
Conditions: MV4-11, 1 μM, 6-8 h
Description: MV-4-11 cells were grown in RPMI 1640 media supplemented with 10% fetal bovine serum, streptomycin and penicillin. Cells were cultured at approximately 10^6 cells per mL and incubated in DMSO or the indicated compound for 6-8 h. […] For Western blot analysis, whole cell protein extracts were separated on 4-12% SDS-polyacrylamide gels, transferred to nitrocellulose and probed with the indicated primary antibodies. […] The signal was detected using the Odyssey Imaging System (LI-COR). […]
OBSERVED PROPERTY: Dmax at 1 µM

Answered examples (3):
# COMPOUND, Dmax at 1 µM
data = [
    ("Cn1ncc(-c2nc(N[C@H]3CC[C@H](NCC(=O)NCCCCCNCC(=O)NCc4scc5c4CN(C4CCC(=O)NC4=O)C5=O)CC3)ncc2F)c1CC1CC1 (stereo partly shown) [Compound 32]", "≥ 75%"),
    ("CC(C)(C)c1cnc(CSc2cnc(NC(=O)C3CCN(CC(=O)NCCOCCOCCOCCNCC(=O)NCc4scc5c4CN(C4CCC(=O)NC4=O)C5=O)CC3)s2)o1 (stereo not shown) [Compound 41]", "< 25%"),
    ("CC(C)(C)c1cnc(CSc2cnc(NC(=O)C3CCN(CC(=O)NCCOCCOCCNC(=O)NCc4cc5c(s4)C(=O)N(C4CCC(=O)NC4=O)C5)CC3)s2)o1 (stereo not shown) [Compound 13]", "< 25%"),
]

// switching to the query compound
Query: Respond only with Dmax at 1 µM recorded for Cn1ncc(-c2nc(N[C@H]3CC[C@H](NCC(=O)NCCCCCNCC(=O)NCc4scc5c4CN(C4CCC(=O)NC4=O)C5=O)CC3)ncc2Cl)c1CC1CC1 (stereo partly shown) [Compound 31]
Result: ≥ 75%

###

Test system: TNF-α
Assay: TNF-α inhibition assay, LPS-induced PBMCs / CD14+ monocytes (Meso Scale)
Type: cell-based
Details: 1 h pretreatment, 100 ng/mL LPS 18-24 h
OBSERVED PROPERTY: inhibition at 1 µM

# COMPOUND, TARGET, inhibition at 1 µM
measured = [
    ("CC(C)(C)c1cnc(CSc2cnc(NC(=O)C3CCN(CC(=O)NCCOCCOCCNC(=O)NCc4cc5c(s4)C(=O)N(C4CCC(=O)NC4=O)C5)CC3)s2)o1 (stereo not drawn) [Compound 13]", "TNF-α", "> 90%"),
]

Query: Consider the compound CC(C)(C)c1cnc(CSc2cnc(NC(=O)C3CCN(CC(=O)NCCOCCOCCOCCNCC(=O)NCc4scc5c4CN(C4CCC(=O)NC4=O)C5=O)CC3)s2)o1 (stereo not drawn) [Compound 41] . State its measured inhibition at 1 µM.
Result: 70 to 90%

Query: Note down inhibition at 1 µM recorded for CC(C)(C)c1cnc(CSc2cnc(NC(=O)C3CCN(CC(=O)NCCOCCOCCNCC(=O)NCc4scc5c4CN(C4CCC(=O)NC4=O)C5=O)CC3)s2)o1 (stereo not drawn) [Compound 26]
Result: 70 to 90%

Query: Query inhibition at 1 µM for CC(C)(C)c1cnc(CSc2cnc(NC(=O)C3CCN(CC(=O)NCCOCCOCCNCC(=O)NCc4cc5c(s4)C(=O)N(C4CCC(=O)NC4=O)C5)CC3)s2)o1 (stereo not drawn) [Compound 34]
Result: 70 to 90%

Query: Dear colleague, please send me the reported inhibition at 1 µM for CC(C)(C)c1cnc(CSc2cnc(NC(=O)C3CCN(CC(=O)NCCOCCNC(=O)NCc4cccc5c4CN([C@H]4CCCC(=O)NC4=O)C5=O)CC3)s2)o1 [Compound 7] when you can.
Result: < 50%

Query: Specify inhibition at 1 µM for Cn1ncc(-c2nc(N[C@H]3CC[C@H](NCC(=O)NCCCCNCC(=O)NCc4cc5c(s4)C(=O)N(C4CCC(=O)NC4=O)C5=O)CC3)ncc2Cl)c1CC1CC1 (stereo partly drawn) [Compound 36] and stop.
Result: 70 to 90%

Query: Assign inhibition at 1 µM to the following record: Cn1ncc(-c2nc(N[C@H]3CC[C@H](NCCOCCOCCOCCNCc4cc5c(s4)C(=O)N(C4CCC(=O)NC4=O)C5)CC3)ncc2Cl)c1CC1CC1 (stereo partly drawn) [Compound 66]
Result: < 50%

Query: Item Cn1ncc(-c2nc(N[C@H]3CC[C@H](NCC(=O)NCCCCNCC(=O)NCc4scc5c4C(=O)N(C4CCC(=O)NC4=O)C5=O)CC3)ncc2Cl)c1CC1CC1 (stereo partly drawn) [Compound 51] : provide inhibition at 1 µM
Result: > 90%

Query: Query inhibition at 1 µM for Cn1ncc(-c2nc(N[C@H]3CC[C@H](NCC(=O)NCCCCNCC(=O)NCc4cc5c(s4)C(=O)N(C4CCC(=O)NC4=O)C5=O)CC3)ncc2F)c1CC1CC1 (stereo partly drawn) [Compound 37]
Result: 70 to 90%

###

Target: IKAROS (Homo sapiens, UniProt Q13422+Q96SW2)
Construct: endogenous in cells; host or cells: MV-4-11
Sequence (Q13422 whole entry): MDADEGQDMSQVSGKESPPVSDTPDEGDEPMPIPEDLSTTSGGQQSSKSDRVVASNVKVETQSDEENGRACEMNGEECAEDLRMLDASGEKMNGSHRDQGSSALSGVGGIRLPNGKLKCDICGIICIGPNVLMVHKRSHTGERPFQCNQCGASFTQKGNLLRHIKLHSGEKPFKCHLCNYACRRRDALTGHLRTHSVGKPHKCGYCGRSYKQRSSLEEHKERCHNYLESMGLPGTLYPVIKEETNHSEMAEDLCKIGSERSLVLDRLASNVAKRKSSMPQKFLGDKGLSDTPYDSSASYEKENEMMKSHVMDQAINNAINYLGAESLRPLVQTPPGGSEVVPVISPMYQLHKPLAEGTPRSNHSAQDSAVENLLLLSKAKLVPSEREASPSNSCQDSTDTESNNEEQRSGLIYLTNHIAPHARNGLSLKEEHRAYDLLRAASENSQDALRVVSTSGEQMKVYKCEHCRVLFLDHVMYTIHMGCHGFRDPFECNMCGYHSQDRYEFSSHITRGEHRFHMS
Sequence (Q96SW2 whole entry): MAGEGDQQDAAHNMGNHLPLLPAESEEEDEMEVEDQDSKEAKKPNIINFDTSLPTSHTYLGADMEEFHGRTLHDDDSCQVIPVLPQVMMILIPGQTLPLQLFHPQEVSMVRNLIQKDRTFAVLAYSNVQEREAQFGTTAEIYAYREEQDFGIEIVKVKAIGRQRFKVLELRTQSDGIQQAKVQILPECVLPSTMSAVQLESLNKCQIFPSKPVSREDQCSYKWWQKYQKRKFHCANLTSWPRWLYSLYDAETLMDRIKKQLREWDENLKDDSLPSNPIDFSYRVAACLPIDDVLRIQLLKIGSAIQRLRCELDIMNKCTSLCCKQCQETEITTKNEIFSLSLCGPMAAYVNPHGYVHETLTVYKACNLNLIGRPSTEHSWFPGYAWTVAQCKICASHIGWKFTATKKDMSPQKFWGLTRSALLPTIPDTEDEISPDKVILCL
Sequence (Q16531 whole entry partner): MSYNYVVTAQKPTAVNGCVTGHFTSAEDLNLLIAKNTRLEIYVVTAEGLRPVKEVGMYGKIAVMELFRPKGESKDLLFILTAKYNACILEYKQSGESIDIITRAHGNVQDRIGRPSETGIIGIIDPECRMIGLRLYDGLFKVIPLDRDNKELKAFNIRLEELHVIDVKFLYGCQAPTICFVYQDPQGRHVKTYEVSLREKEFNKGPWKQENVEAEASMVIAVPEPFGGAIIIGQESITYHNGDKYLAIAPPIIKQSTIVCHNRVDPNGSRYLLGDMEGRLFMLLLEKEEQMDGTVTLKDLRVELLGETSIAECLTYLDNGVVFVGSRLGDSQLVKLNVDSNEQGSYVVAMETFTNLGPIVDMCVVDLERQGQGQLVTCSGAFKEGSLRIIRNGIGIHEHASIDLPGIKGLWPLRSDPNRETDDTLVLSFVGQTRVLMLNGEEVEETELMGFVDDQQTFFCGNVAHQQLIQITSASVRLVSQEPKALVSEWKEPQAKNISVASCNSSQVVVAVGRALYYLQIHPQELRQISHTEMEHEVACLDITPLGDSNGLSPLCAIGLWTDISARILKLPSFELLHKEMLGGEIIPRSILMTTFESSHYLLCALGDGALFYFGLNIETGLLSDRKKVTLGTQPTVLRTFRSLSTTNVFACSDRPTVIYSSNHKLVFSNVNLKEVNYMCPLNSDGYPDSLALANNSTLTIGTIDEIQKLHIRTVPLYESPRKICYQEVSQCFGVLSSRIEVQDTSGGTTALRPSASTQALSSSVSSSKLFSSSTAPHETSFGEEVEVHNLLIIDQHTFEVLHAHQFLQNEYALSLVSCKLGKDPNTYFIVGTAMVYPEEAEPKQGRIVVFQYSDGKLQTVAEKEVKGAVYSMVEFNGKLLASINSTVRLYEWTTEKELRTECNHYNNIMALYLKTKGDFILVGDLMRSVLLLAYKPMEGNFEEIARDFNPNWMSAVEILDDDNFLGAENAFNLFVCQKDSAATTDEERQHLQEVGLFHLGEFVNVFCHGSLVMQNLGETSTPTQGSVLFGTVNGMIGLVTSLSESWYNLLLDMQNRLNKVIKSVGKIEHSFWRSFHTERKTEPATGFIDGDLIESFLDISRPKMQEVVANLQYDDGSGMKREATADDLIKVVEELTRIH
Test: IKAROS degradation assay (Western blot, MV-4-11 cells)
Format: cell-based
Details: MV4-11, 6-8 h
Each entry below carries its recorded Dmax at 1 µM.

# COMPOUND, OBSERVED PROPERTY, VALUE OBSERVED
measured = [
    ("Cn1ncc(-c2nc(N[C@H]3CC[C@H](NCCCCCCCNCc4ccc(OCc5scc6c5CN([C@H]5CCC(=O)NC5=O)C6=O)cc4)CC3)ncc2Cl)c1CC1CC1", "Dmax at 1 µM", "≥ 75%"),
    ("Cn1ncc(-c2nc(N[C@H]3CC[C@H](NCC(=O)NCCCCNCC(=O)NCc4scc5c4C(=O)N(C4CCC(=O)NC4=O)C5=O)CC3)ncc2Cl)c1CC1CC1 (some centres unmarked)", "Dmax at 1 µM", "50 to 75%"),
    ("Cn1ncc(-c2nc(N[C@H]3CC[C@H](NCC(=O)NCCOCCOCC(=O)NCc4ccc(COc5cccc6c5CN(C5CCC(=O)NC5=O)C6=O)cc4)CC3)ncc2Cl)c1CC1CC1 (some centres unmarked)", "Dmax at 1 µM", "50 to 75%"),
    ("CC(C)(C)c1cnc(CSc2cnc(NC(=O)C3CCN(CC(=O)NCCCCNCC(=O)NCc4cc5c(s4)C(=O)N(C4CCC(=O)NC4=O)C5)CC3)s2)o1 (centres unmarked)", "Dmax at 1 µM", "< 25%"),
]

As a next step, examine the compound that follows.
Query: Item CC(C)(C)c1cnc(CSc2cnc(NC(=O)C3CCN(CC(=O)NCCCNCC(=O)NCc4cc5c(s4)C(=O)N(C4CCC(=O)NC4=O)C5)CC3)s2)o1 (centres unmarked) : provide Dmax at 1 µM
Result: 25 to 50%

###

Tested on: IL-1β
Experiment: IL-1β inhibition assay, LPS-induced PBMCs / CD14+ monocytes (Meso Scale)
Type: cell-based
Settings: 1 h pretreatment, 100 ng/mL LPS 18-24 h
inhibition at 1 µM reference

# MOLECULE, inhibition at 1 µM
measured = [
    ("Cn1ncc(-c2nc(N[C@H]3CC[C@H](NCCCCCCNC(=O)NCc4cc5c(s4)C(=O)N(C4CCC(=O)NC4=O)C5)CC3)ncc2F)c1CC1CC1 (stereo partly drawn)", "< 50%"),
    ("Cn1ncc(-c2nc(N[C@H]3CC[C@H](NCCOCCOCCOCCNCc4cc5c(s4)C(=O)N(C4CCC(=O)NC4=O)C5)CC3)ncc2Cl)c1CC1CC1 (stereo partly drawn)", "< 50%"),
    ("CC(C)(C)c1cnc(CSc2cnc(NC(=O)C3CCN(CC(=O)NCCOCCOCCNCC(=O)NCc4cc5c(s4)C(=O)N(C4CCC(=O)NC4=O)C5)CC3)s2)o1 (stereo not drawn)", "70 to 90%"),
]

Query: Identify inhibition at 1 µM associated with the molecule Cn1ncc(-c2nc(N[C@H]3CC[C@H](NCC(=O)NCCCCNCC(=O)NCc4scc5c4C(=O)N(C4CCC(=O)NC4=O)C5=O)CC3)ncc2Cl)c1CC1CC1 (stereo partly drawn)
Result: > 90%

Query: Give recorded inhibition at 1 µM. CC(C)(C)c1cnc(CSc2cnc(NC(=O)C3CCN(CC(=O)NCCOCCOCCNC(=O)NCc4cc5c(s4)C(=O)N(C4CCC(=O)NC4=O)C5)CC3)s2)o1 (stereo not drawn)
Result: > 90%

Query: State, in one line, measured inhibition at 1 µM of Cn1ncc(-c2ncnc(N[C@H]3CC[C@H](NCCCCCCCCNC(=O)NCc4cc5c(s4)C(=O)N(C4CCC(=O)NC4=O)C5)CC3)n2)c1CC1CC1 (stereo partly drawn)
Result: < 50%
